- study target: T1, hKLRF2 (human, UniProt D3W0D1 1-207)
- T1 construct: Overexpressed on HEK293 cells
- T1 sequence: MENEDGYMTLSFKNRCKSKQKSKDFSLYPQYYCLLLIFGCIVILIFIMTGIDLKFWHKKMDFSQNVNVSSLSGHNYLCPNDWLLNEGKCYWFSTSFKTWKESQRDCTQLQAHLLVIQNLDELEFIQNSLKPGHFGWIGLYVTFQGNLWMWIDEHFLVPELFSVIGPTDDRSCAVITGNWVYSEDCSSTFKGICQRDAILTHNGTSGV
- protocol details: flow cytometry, HEK293 transfectants, 100 nM antibody;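 further: antibody applied at a saturating level and incubated with cells for 30 min at room temperature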
metric name: % of CD161 binding (%)
Give just the numeric value; % need not be written.

Give the reported % of CD161 binding for this binder. Ab1 (antibody, human IgG1, V domains shown, IgG purified from yeast culture) VH: EVQLLESGGGLVQPGGSLRLSCAASGFAFSTYAMSWVRQAPGKGLEWVSAISAAGGTTYYADSVKGRFTISRDNSKNTLYLQMNSLRAEDTAVYYCAKPLDSSLWADFDLWGRGTLVTVSS VL: DIQMTQSPSSVSASVGDRVTITCRASQGIDSWLAWYQQKPGKAPKLLIYAASSLQSGVPSRFSGSGSGTDFTLTISSLQPEDFATYYCQQASVLPITFGGGTKVEIK
0.036

Where these numbers come from: patent US20250243281A1
